measurement target: human truncated cGAS enzyme (147-522 human cGAS) (Homo sapiens (Human))
Sequence (Q8N884 147-522): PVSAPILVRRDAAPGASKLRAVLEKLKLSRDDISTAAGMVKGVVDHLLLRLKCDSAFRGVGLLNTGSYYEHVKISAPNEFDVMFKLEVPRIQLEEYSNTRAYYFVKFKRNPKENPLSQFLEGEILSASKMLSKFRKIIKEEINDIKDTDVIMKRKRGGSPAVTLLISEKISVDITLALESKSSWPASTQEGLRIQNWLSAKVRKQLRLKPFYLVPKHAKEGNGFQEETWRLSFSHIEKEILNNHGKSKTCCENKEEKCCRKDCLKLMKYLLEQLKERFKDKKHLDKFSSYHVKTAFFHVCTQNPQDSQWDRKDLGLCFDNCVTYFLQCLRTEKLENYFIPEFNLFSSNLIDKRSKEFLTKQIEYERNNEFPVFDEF
method description: Quantification of cGAS protein inhibition (cGAMP formation measured by LC-MS/MS)
Type: biochemical
recorded conditions: reported for the potential mixture of co-existing tautomers and/or racemates
Measured pIC50 values are reported for all entries that follow.
Scale for pIC50: -log10 of concentration given in mol/L; no unit attached.

COC[C@@H](O)c1nnc(-c2c(-n3ccnc3)c3cc(OC)c(Cl)c(F)c3n2C)[nH]1 [Example 83]: 7.11
COc1cc2c(-n3ccnc3)c(-c3nnc(CS(C)(=O)=O)[nH]3)n(C)c2c(F)c1Cl [Example 56]: 7.25
COCC(F)c1nnc(-c2c(-c3cn[nH]c3)c3cc(OC)c(Cl)c(F)c3n2C)[nH]1 (stereo not shown) [Example 70]: 7.41

# context switch: different molecule, same pIC50
IN: Please look up its pIC50: COc1cc2c(-c3cn[nH]c3)c(-c3nnc(C(F)(F)F)[nH]3)n(CCO)c2cc1Cl [Example 25]
OUT: 5.84
